protocol notes: in vivo
run conditions: rat, po, 10 ug
observed property: half-life (h)
The response must be a number in h with no trailing unit.

The recorded half-life for C#C[C@]1(O)CC[C@H]2[C@@H]3CCC4=CC(=O)CC[C@@H]4[C@H]3CC[C@@]21CC [levonorgestrel] is 16.9

----------
protocol notes: in vivo
run conditions: rat, po
observed property: half-life (h)
The response must be a number in h with no trailing unit.

The recorded half-life for C#C[C@]1(O)CC[C@H]2[C@@H]3CCC4=CC(=O)CC[C@@H]4[C@H]3CC[C@@]21CC is 16.9

----------
protocol notes: in vivo
run conditions: rat, po, 10 ug
observed property: Tmax (h)
The response must be a number in h with no trailing unit.

The recorded Tmax for C#C[C@]1(O)CC[C@H]2[C@@H]3CCC4=CC(=O)CC[C@@H]4[C@H]3CC[C@@]21CC is 2.1
